Target: Mothers against decapentaplegic homolog 3 (Homo sapiens) (UniProt P84022)
Sequence (P84022 whole entry, looked up): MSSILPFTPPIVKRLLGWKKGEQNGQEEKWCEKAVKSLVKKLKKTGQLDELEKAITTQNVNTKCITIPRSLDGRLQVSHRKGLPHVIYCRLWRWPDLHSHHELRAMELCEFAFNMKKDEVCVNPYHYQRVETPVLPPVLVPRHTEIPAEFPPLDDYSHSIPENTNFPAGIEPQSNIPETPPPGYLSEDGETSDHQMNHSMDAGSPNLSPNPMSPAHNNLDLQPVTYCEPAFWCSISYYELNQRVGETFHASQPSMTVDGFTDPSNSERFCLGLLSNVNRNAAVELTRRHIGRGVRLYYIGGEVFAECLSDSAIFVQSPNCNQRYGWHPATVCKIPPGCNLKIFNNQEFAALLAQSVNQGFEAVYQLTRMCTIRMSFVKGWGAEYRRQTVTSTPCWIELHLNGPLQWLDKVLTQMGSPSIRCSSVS
Assay: blockers of Smad3 binding to FoxH1 – biochemical, TR-FRET, primary screen (AID 630);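 further: 0% = Smad3 plus labelled peptide maximal FRET and 100% = peptide-only background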
Settings: TR-FRET Smad3/Dy647-FoxH1 peptide binding, europium anti-His; at 25 µM; active compounds read high
Hit rate of the full screen: of about 88,000 compounds, about 260 (0.3%) were called active. This excerpt belongs to a sample that is enriched for actives.

| compound | unit-text | inhibition |
| --- | --- | --- |
| CCc1c(O)cc2n(c1=O)-c1ccccc1C2(C)C | % | 7.56 |
| Cc1ccc(CS(=O)(=O)CCC(=O)NC2CC2)cc1 | % | 6.21 |
| CC1(C)C2CCC13CS(=O)(=O)NC3C2 (stereo unspecified) | % | 7.24 |
| CCOC(=O)c1c(NC(=O)CCl)sc(C(=O)N(CC)CC)c1C | % | 14.1 |
| Cn1c2c(c(=O)n(C)c1=O)C(c1cccc([N+](=O)[O-])c1)Nc1ccccc1O2 (stereo unspecified) | % | -10.5 |
| COc1ccc(C)cc1S(=O)(=O)NCCc1ccccc1 | % | 7.34 |
| Cc1oc2nc(SCC(=O)Nc3ccc(S(N)(=O)=O)cc3)nc(NC(=O)c3ccccc3)c2c1C | % | -117 |
| COC(=O)Nc1ccc(S(=O)(=O)N2CCN(CCN3C(=O)C4C5C=CC(C5)C4C3=O)CC2)cc1 (stereo unspecified) | % | 6.97 |
| CC1=CC(=O)C=CC1(C)C(Cl)(Cl)Cl (stereo unspecified) | % | -10.9 |
| CC1=NN(c2ccccc2)C(=O)[C@H]1N=Nc1ccc(S(N)(=O)=O)cc1 | % | -0.1 |
| CCCNC(=O)N1CCN(C(=O)NCCC)CC1 | % | 0.05 |
